Assayed target: T1, Anti-CD28 Fab (SEQ ID NOs: 696, 697)
T1 construct: Biotinylated and captured on neutravidin coated plates in the phage ELISA
T1 sequence (VH, as listed by the source, chain 1 of 2): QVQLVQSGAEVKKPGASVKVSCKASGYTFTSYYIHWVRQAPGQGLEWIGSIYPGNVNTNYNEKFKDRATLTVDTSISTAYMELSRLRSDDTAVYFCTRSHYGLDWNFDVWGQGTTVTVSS
T1 sequence (VL, as listed by the source, chain 2 of 2): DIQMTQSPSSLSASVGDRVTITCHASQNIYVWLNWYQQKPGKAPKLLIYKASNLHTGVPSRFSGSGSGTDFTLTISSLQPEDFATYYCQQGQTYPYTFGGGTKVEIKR
Assay method text: phage binding ELISA; clonal phage on biotinylated anti-CD28 Fab captured on neutravidin, anti-M13-HRP detection
Quantity kind: Anti-CD28 Fab (SEQ ID NOs: 696, 697) signal
Lab note: record the figure alone, no unit after it.

input: Which Anti-CD28 Fab (SEQ ID NOs: 696, 697) signal is listed for TCAAGAGWQWPMCF (peptide, not shown: large carriers) [Phage-1514] ?
output: 1.6

input: Queued: SCSAVFSYAWPTCL (peptide, not shown: large carriers) [Phage-1511]
output: 1.61

input: Queued: DCWGDAPYPWRVCL (peptide, not shown: large carriers) [Phage-1506]
output: 1.64

input: Queued: LCSAGAMYQWPTCL (peptide, not shown: large carriers) [Phage-1508]
output: 1.63
